FYI, the data here is from patent US12195457B2.

- studySystem: S1P1 (Homo sapiens)
- Construct: host or cells: CHO-K1
- Sequence (P21453 whole entry): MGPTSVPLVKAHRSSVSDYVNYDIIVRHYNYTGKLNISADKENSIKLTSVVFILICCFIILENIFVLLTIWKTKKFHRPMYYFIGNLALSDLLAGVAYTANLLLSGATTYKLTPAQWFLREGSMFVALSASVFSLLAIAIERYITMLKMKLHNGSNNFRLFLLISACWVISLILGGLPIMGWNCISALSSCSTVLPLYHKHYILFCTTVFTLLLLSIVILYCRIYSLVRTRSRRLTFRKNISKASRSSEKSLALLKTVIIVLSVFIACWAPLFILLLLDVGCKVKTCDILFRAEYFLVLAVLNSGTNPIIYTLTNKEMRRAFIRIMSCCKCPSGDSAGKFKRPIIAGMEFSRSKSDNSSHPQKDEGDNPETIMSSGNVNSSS
- protocolSummary: S1P1 mediated inhibition of forskolin induced cAMP (PathHunter CHO-K1 EDG1 cells)
- Assay type: cell-based
endpoint: pEC50
Kindly note that pEC50 refers to -log10 of the concentration in mol/L and answer with the value alone.

Answered examples (4):
- O=C(O)CCn1ccc2cc(OCc3ccc(C4CCCC4)c(C(F)(F)F)c3)ccc21: 9.19
- O=C(O)CCc1[nH]c2ccc(OCc3ccc(OC4CCCC4)c(C(F)(F)F)c3)cc2c1Cl: 11.14
- O=C(O)CCc1[nH]c2ccc(OCc3ccc(C4CCOC4)c(C(F)(F)F)c3)cc2c1Cl (centres unmarked): 11.39
- O=C(O)CCc1cc2cc(OCc3ccc(C4CCCC4)c(C(F)(F)F)c3)c(F)cc2[nH]1: 10.10

Entry under review: Cc1c(CCC(=O)O)[nH]c2ccc(OCc3ccc(C4CCOC4)c(C(F)(F)F)c3)cc12 (centres unmarked) . Reported pEC50? 9.25

// returns reported pEC50 for input O=C(O)CCc1[nH]c2ccc(OCc3cnc(C4CCCC4)c(C(F)(F)F)c3)cc2c1F 9.82

Quick one: pEC50 of O=C(O)CCc1nc2cc(OCc3ccc(C4CCCC4)c(C(F)(F)F)c3)ccc2[nH]1 ? 9.80

Quick one: pEC50 for Cc1c(CCC(=O)O)[nH]c2ccc(OCc3ccc(C4CCOCC4)c(C(F)(F)F)c3)cc12 ? 9.47

----------
- protocolSummary: In vivo pharmacokinetics in rats, intravenous injection and oral administration
- Set-up: species or system Sprague Dawley rats
- runConditions: male, Sprague-Dawley, plasma; rat, oral administration 1 mg/kg
endpoint: half-life (h)
Entry rule: numbers only, all in h.

Examples with their reported half-life follow.
- O=C(O)C[C@H]1CCc2c1[nH]c1ccc(OCc3ccc(C4CCCC4)c(C(F)(F)F)c3)cc21 [APD334, reference compound]: 5.5
- O=C(O)CCc1[nH]c2ccc(OCc3ccc(C4CCCC4)c(C(F)(F)F)c3)cc2c1F [Compound 14]: 4
- O=C(O)CCc1[nH]c2ccc(OCc3ccc(C4CCCC4)c(C(F)(F)F)c3)cc2c1Cl [Compound 13]: 3.9

Next compound, half-life to be filled in.
Reported half-life, compound Cc1c(CCC(=O)O)[nH]c2ccc(OCc3ccc(C4CCCC4)c(C(F)(F)F)c3)cc12 [Compound 16] : ____ 2.9

----------
- protocolSummary: In vivo pharmacokinetics in rats, intravenous injection and oral administration
- Set-up: species or system Sprague Dawley rats
- runConditions: male, Sprague-Dawley, plasma; rat, intravenous administration 1 mg/kg
- Protocol: In this experimental embodiment, in vivo pharmacokinetic evaluation was performed in rats by intravenous injection and oral administration. Experimental methods and conditions: male Sprague Dawley rats were given the test compounds 1 mg/kg (solvent 5% DMSO/15% Solutol/80% Saline) by intravenous injection and 1 mg/kg (solvent 0.5% MC) by oral gavage respectively. […] After collection, the sample was placed on ice, and the blood was centrifuged to be measured within one hour. […]
endpoint: clearance (mL/min/kg)
Express the result in mL/min/kg but write the number alone.

• O=C(O)C[C@H]1CCc2c1[nH]c1ccc(OCc3ccc(C4CCCC4)c(C(F)(F)F)c3)cc21 [APD334, reference compound] = 1.83

Given O=C(O)CCc1[nH]c2ccc(OCc3ccc(C4CCCC4)c(C(F)(F)F)c3)cc2c1F [Compound 14] , state its recorded clearance. 1.55

Give its clearance value. Item: O=C(O)CCc1[nH]c2ccc(OCc3ccc(C4CCCC4)c(C(F)(F)F)c3)cc2c1Cl [Compound 13] 3.5

State the recorded clearance for this entry: Cc1c(CCC(=O)O)[nH]c2ccc(OCc3ccc(C4CCCC4)c(C(F)(F)F)c3)cc12 [Compound 16] 4.17
